# runParameters: in ethanol, 293.15 K
measuredMetric: solubility (mole fraction)
Give bare numbers.

Record CC1(C)[C@@H](O)CC[C@]2(C)[C@H]3C(=O)C=C4[C@@H]5C[C@@](C)(C(=O)O)CC[C@]5(C)CC[C@@]4(C)[C@]3(C)CC[C@@H]12 , field solubility (mole fraction): 0.0128

* * *

# runParameters: in ethanol, 323.15 K
measuredMetric: solubility (mole fraction)

Record CC1(C)[C@@H](O)CC[C@]2(C)[C@H]3C(=O)C=C4[C@@H]5C[C@@](C)(C(=O)O)CC[C@]5(C)CC[C@@]4(C)[C@]3(C)CC[C@@H]12 , field solubility (mole fraction): 0.0172
